Recorded Population Pyknosed Nuclei (%) values for a group of compounds are listed next.
- Tested on: Fibroblast
- experiment: Multiplex assay against human fibroblast
- Assay type: toxicity, cell-based
- run_conditions: 12 h, 10 µM, compound concentration 10 uM, number of replicates 2
quantity: Population Pyknosed Nuclei (%)

* CS(=O)(=O)c1ccc(C(=O)Nc2cccc(COc3ccc(Br)cc3CN[C@H]3CCC[C@@H]3O)c2)c(Cl)c1.O=CO | 42
* CS(=O)(=O)c1ccc(C(=O)Nc2cccc(COc3ccc(Br)cc3CN3CCC[C@H](O)C3)c2)c(Cl)c1.O=CO | 18
* C=CC(=O)Nc1ccc2[nH]c(=O)n(C3CCN(Cc4ccc(-c5ccc6c(c5)NC(=O)CO6)cc4)CC3)c2c1 | 8
* CS(=O)(=O)c1ccc(C(=O)Nc2cccc(COc3ccc(Br)cc3CN3CC[C@H](O)C3)c2)cc1.O=CO | 30

* * *

- Test system: Fibroblast
- experiment: Multiplex assay against human fibroblast
- Assay type: toxicity, cell-based
- run_conditions: 12 h, 10 µM, compound concentration 10 uM, number of replicates 2
Recorded Population Normal (%) values for a group of compounds are listed next.
quantity: Population Normal (%)

- CCCCOc1c(C(=O)c2c(F)cc(C)cc2F)c[nH]c2nncc1-2: 99
- NCC1CCC(CNc2nc(NCc3ccccc3OC(F)(F)F)ncc2[N+](=O)[O-])CC1 (configuration not stated): 100
- COc1ncc(-c2cc(-c3ncc(CN4C[C@@H](C)O[C@@H](C)C4)o3)c3cn[nH]c3c2)cc1NS(C)(=O)=O: 100
- Cc1onc(-c2ccccc2Cl)c1C(=O)N(C)c1ccc(Cl)cc1: 100
- CNC(=O)c1c(F)cccc1Nc1nc(Nc2cc3c(cc2OC)CCN3C(=O)CN(C)C)nc2[nH]ccc12: 100
- CCn1ccc(Nc2ncc3c(n2)-c2c(nn(C)c2-c2ccc(-c4cnn(C)c4)cc2Cl)CC3)n1: 100
- COc1cc(Br)c(S(=O)(=O)Nc2ccc(C(F)(F)F)c(O[C@@H]3CCN(C)C3)c2)cc1OC: 100
- C[C@@H](Oc1cc(-n2cnc3ccc(OC4CCN(C)CC4)cc32)sc1C(N)=O)c1ccccc1Cl [GSK-579289A]: 100
- CN(C)C/C=C/C(=O)Nc1ccc(C(=O)Nc2cccc(Nc3ncc(Cl)c(-c4c[nH]c5ccccc45)n3)c2)cc1: 99
- CS(=O)(=O)c1ccc(C(=O)Nc2cccc(COc3ccc(Br)cc3CN3CC[C@@H](O)C3)c2)c(Cl)c1.O=CO: 100
- Cn1ncc(NC(=O)c2nc(-c3c(F)cccc3F)sc2N)c1N1CC[C@@H](N)[C@H](F)CC1: 100
- Cc1ccc2c(c1CCC(=O)O)CC[C@@H](NS(=O)(=O)c1ccc(Cl)cc1)C2: 100
- CN1CCN(c2ccc(-n3cc(-c4ccncc4OCC4CCNCC4)cn3)cc2)CC1: 100
- C[C@H](N)Cn1ccc2cc(F)c(Cl)cc21.O=C(O)/C=C/C(=O)O: 100
- COCCN1CCN(CCn2ccc(Nc3ncc4c(n3)-c3c(nn(C)c3-c3ccccc3)C[C@H]4C)n2)CC1: 99
- N=C(N)NCCC[C@H](NC(=O)COCC(c1ccccc1)c1ccccc1)C(=O)O.O=C(O)C(F)(F)F: 100
- C[C@@H](OC[C@@]1(c2ccccc2)CC[C@]2(CCC(=O)N2)CN1)c1cc(C(F)(F)F)cc(C(F)(F)F)c1: 100

* * *

- Tested on: HEK-293T
- experiment: Multiplex assay against HEK293T
- Format: toxicity, cell-based
- run_conditions: human, 12 h, 1 µM, compound concentration 1 uM, number of replicates 2
quantity: Population Normal (%)

* C[C@H](N)Cn1ccc2cc(F)c(Cl)cc21.O=C(O)/C=C/C(=O)O | 91
* COc1ncc(-c2cc(-c3ncc(CN4C[C@@H](C)O[C@@H](C)C4)o3)c3cn[nH]c3c2)cc1NS(C)(=O)=O | 89
* Cc1ccc2c(c1CCC(=O)O)CC[C@@H](NS(=O)(=O)c1ccc(Cl)cc1)C2 | 92
* CNC(=O)c1c(F)cccc1Nc1nc(Nc2cc3c(cc2OC)CCN3C(=O)CN(C)C)nc2[nH]ccc12 | 87
* Cc1onc(-c2ccccc2Cl)c1C(=O)N(C)c1ccc(Cl)cc1 | 93
* CN1CCCN(C(=O)c2cccc(-c3ccc(/C=C4/C(=O)Nc5ccc(Cl)cc54)o3)c2)CC1 | 93
* CC(C)S(=O)(=O)c1ccccc1Nc1nc(N[C@@H]2CCCN(CCCCCCCNC(=O)COc3cccc4c3C(=O)N(C3CCC(=O)N(C)C3=O)C4=O)C2)ncc1Cl (some centres undefined) | 88
* COc1nc2ccc([C@@](O)(c3ccc(Cl)cc3)c3cncn3C)cc2c(Cl)c1Cc1ccc(-n2cccn2)cc1 | 92
* COc1cc(OC)cc(C(=O)NNC(=O)Nc2cccc3ccccc23)c1 | 95

* * *

- Test system: U2OS
- experiment: Multiplex assay against U2OS
- Format: toxicity, cell-based
- run_conditions: human, 24 h, 10 µM, compound concentration 10 uM, number of replicates 2
quantity: Population Mitochondria Different-Phenotype (%)

* Cc1c(C(=O)Nc2ccc(N3C[C@@H](C)O[C@@H](C)C3)nc2)cccc1-c1ccc(OC(F)(F)F)cc1 [SONIDEGIB] | 0
* CCCCOc1c(C(=O)c2c(F)cc(C)cc2F)c[nH]c2nncc1-2 | 0
* CC(C)N(CCCCOCC(=O)NS(C)(=O)=O)c1cnc(-c2ccccc2)c(-c2ccccc2)n1 [SELEXIPAG] | 0
* Cc1onc(-c2ccccc2Cl)c1C(=O)N(C)c1ccc(Cl)cc1 | 1
* CN1CCc2cc(Cl)c(O)cc2[C@@H](c2ccccc2)C1.Cl | 0
* Cn1ncc(NC(=O)c2nc(-c3c(F)cccc3F)sc2N)c1N1CC[C@@H](N)[C@H](F)CC1 | 33

* * *

- System: Fibroblast
- experiment: Multiplex assay against human fibroblast
- Type: toxicity, cell-based
- run_conditions: 12 h, 1 µM, compound concentration 1 uM, number of replicates 2
Recorded Population Mitotic Cells (%) values for a group of molecules are listed next.
quantity: Population Mitotic Cells (%)

- Cn1ncc(NC(=O)c2nc(-c3c(F)cccc3F)sc2N)c1N1CC[C@@H](N)[C@H](F)CC1: 40
- COc1ncc(-c2cc(-c3ncc(CN4C[C@@H](C)O[C@@H](C)C4)o3)c3cn[nH]c3c2)cc1NS(C)(=O)=O: 51
- COc1nc2ccc([C@@](O)(c3ccc(Cl)cc3)c3cncn3C)cc2c(Cl)c1Cc1ccc(-n2cccn2)cc1: 69
- CN1CCN(c2ccc(-n3cc(-c4ccncc4OCC4CCNCC4)cn3)cc2)CC1: 55

* * *

- System: HEK-293T
- experiment: Multiplex assay against HEK293T
- Assay type: toxicity, cell-based
- run_conditions: human, 48 h, 1 µM, compound concentration 1 uM, number of replicates 2
quantity: Population Membrane Permeable-Phenotype (%)

• Cc1onc(-c2ccccc2Cl)c1C(=O)N(C)c1ccc(Cl)cc1 = 4
• COc1cc(OC)cc(C(=O)NNC(=O)Nc2cccc3ccccc23)c1 = 4
• Cc1cc(C2CCCNC2)ccc1Nc1ncc(Br)c(NCc2cccc3c2C(C)(C)C(=O)N3)n1 (configuration not stated) = 2
• CCc1cnn2c(NCc3ccc[n+]([O-])c3)cc(N3CCCCC3CCO)nc12 (configuration not stated) = 0
• COc1ccc(NC(=O)c2ccc(-c3ccc(-c4noc(C)n4)cc3C)cc2)cc1OCCN(C)C.Cl = 5
• CN1CCN(c2ccc(-n3cc(-c4ccncc4OCC4CCNCC4)cn3)cc2)CC1 = 3
• CCNc1ccc(-c2nn(-c3ccccc3C)c3c2C(C)Cc2nc(NC(=O)OC)sc2-3)cn1.O=C(O)C(F)(F)F (configuration not stated) = 0
• CN1CCCN(C(=O)c2cccc(-c3ccc(/C=C4/C(=O)Nc5ccc(Cl)cc54)o3)c2)CC1 = 0
• COc1cccc(Cn2cc(C(=O)Nc3ccc(C)c(S(=O)(=O)N4CCOCC4)c3)c(-c3ccc(C)cc3)n2)c1 = 7
• CNC(=O)c1c(F)cccc1Nc1nc(Nc2cc3c(cc2OC)CCN3C(=O)CN(C)C)nc2[nH]ccc12 = 1
• CN[C@@H]1CC[C@@H](c2ccc(Cl)c(Cl)c2)c2ccccc21.Cl = 4
• CCn1c(-c2nonc2N)nc2cncc(C(=O)N3CC[C@H](N)C3)c21.Cl = 3

* * *

- System: HEK-293T
- experiment: Multiplex assay against HEK293T
- Format: toxicity, cell-based
- run_conditions: human, 24 h, 10 µM, compound concentration 10 uM, number of replicates 2
quantity: Population Membrane Permeable-Phenotype (%)

- COCCNC1CCC(Nc2cc(-c3csc(NCC4(C#N)CCOCC4)n3)c(Cl)cn2)CC1 (centres undefined): 2%
- CN[C@@H]1CC[C@@H](c2ccc(Cl)c(Cl)c2)c2ccccc21.Cl: 2%
- C[C@@H](Oc1cc(-n2cnc3ccc(OC4CCN(C)CC4)cc32)sc1C(N)=O)c1ccccc1Cl [GSK-579289A]: 1%
- C[C@@H](OC[C@@]1(c2ccccc2)CC[C@]2(CCC(=O)N2)CN1)c1cc(C(F)(F)F)cc(C(F)(F)F)c1: 3%
- CCc1cnn2c(NCc3ccc[n+]([O-])c3)cc(N3CCCCC3CCO)nc12 (centres undefined): 0%
- CCNc1ccc(-c2nn(-c3ccccc3C)c3c2C(C)Cc2nc(NC(=O)OC)sc2-3)cn1.O=C(O)C(F)(F)F (centres undefined): 1%
- Cc1onc(-c2ccccc2Cl)c1C(=O)N(C)c1ccc(Cl)cc1: 4%
- CN(C)[C@H]1CC[C@H](Nc2ncc3ncnc(Nc4ccc(F)c(Cl)c4)c3n2)CC1: 2%
- CCCNc1ccc2ncc(-c3ccncc3)n2n1: 1%

These data points were gathered from ChEMBL document CHEMBL5303300.
